B1: LYSMD4 (parent)
chain: LLQRELAQEDSLNKLALQYGCKVA

variants of: B1; test: protein stability index of a GFP-peptide fusion (GPS, HEK-293T) (PSI 1-6); higher = more stable; conditions: c terminus: a fixed tail appended;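 further: lentivirally expressed fusions sorted by FACS into six bins by GFP to DsRed ratio, PSI derived from sequencing read proportions per bin multiplied by bin number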
Known protein stability index of a selection of variants
measured_property: protein stability index

- variant_spec: "V23N"
  observed_measurement: 3.62
- variant_spec: "N13E"
  observed_measurement: 1.65
- variant_spec: "A24T"
  observed_measurement: 2.19
- variant_spec: "Q3P"
  observed_measurement: 1.41
- variant_spec: "G20M"
  observed_measurement: 3.62
- variant_spec: "L12A"
  observed_measurement: 2.5
- variant_spec: "R4Y"
  observed_measurement: 3.28
- variant_spec: "L2N"
  observed_measurement: 2.04
- variant_spec: "D10Q"
  observed_measurement: 2.67
- variant_spec: "V23K"
  observed_measurement: 2.92
- variant_spec: "R4N"
  observed_measurement: 2.04
- variant_spec: "C21N"
  observed_measurement: 3.29
- variant_spec: "L6V"
  observed_measurement: 1.62
- variant_spec: "L6S"
  observed_measurement: 1.67
- variant_spec: "S11G"
  observed_measurement: 2.25
- variant_spec: "L12H"
  observed_measurement: 3.65
- variant_spec: "C21K"
  observed_measurement: 2.63
- variant_spec: "Q8A"
  observed_measurement: 1.73
- variant_spec: "L15T"
  observed_measurement: 2.93
- variant_spec: "Q3I"
  observed_measurement: 1.46
- variant_spec: "E9L"
  observed_measurement: 3.17
- variant_spec: "L1A"
  observed_measurement: 1.96
- variant_spec: "C21H"
  observed_measurement: 2.89
- variant_spec: "Y19L"
  observed_measurement: 2.34
- variant_spec: "K22L"
  observed_measurement: 1.62
- variant_spec: "L6T"
  observed_measurement: 1.92
- variant_spec: "K14D"
  observed_measurement: 2.23
- variant_spec: "L12W"
  observed_measurement: 1.23
- variant_spec: "L17A"
  observed_measurement: 1.84
- variant_spec: "E5V"
  observed_measurement: 2.88
- variant_spec: "E9R"
  observed_measurement: 1.94
- variant_spec: "R4C"
  observed_measurement: 3.8
- variant_spec: "A24H"
  observed_measurement: 1.03
- variant_spec: "R4P"
  observed_measurement: 2.06
- variant_spec: "Q8T"
  observed_measurement: 1.45
- variant_spec: "Q18K"
  observed_measurement: 2.42
- variant_spec: "Q3T"
  observed_measurement: 1.27
- variant_spec: "C21L"
  observed_measurement: 1.95

Each recorded value in this set is attributed to the supplement of paper PMC10567573.
